details: Liquid; Fischer boiling-point apparatus
± gives the expanded uncertainty stated by the source.
Listed compounds paired with reported Normal boiling temperature
Observable: Normal boiling temperature

compound="CC(=O)CC(C)C [4-methylpentan-2-one]" observable="Normal boiling temperature" experimental_result="116.30 ± 0.2 °C"
compound="CC(=O)OCc1ccccc1 [benzyl ethanoate]" observable="Normal boiling temperature" experimental_result="213.10 ± 0.2 °C"
compound="CC(=O)O [acetic acid]" observable="Normal boiling temperature" experimental_result="117.70 ± 0.2 °C"
compound="CCC(=O)O [propanoic acid]" observable="Normal boiling temperature" experimental_result="140.90 ± 0.2 °C"
compound="CCCC#N [butanenitrile]" observable="Normal boiling temperature" experimental_result="117.40 ± 0.2 °C"

* * *

Listed compounds paired with reported refractive index
experiment: refractive index (Na D-line) (dimensionless); conditions: 293.1 K; 101.33 kPa; Liquid; Standard Abbe refractometry
Observable: refractive index

compound="CC(=O)OCc1ccccc1 [benzyl ethanoate]" experimental_result=1.5235
compound=CC(=O)O experimental_result=1.3721
compound=CCCC#N experimental_result=1.384
compound=CC(=O)CC(C)C experimental_result=1.3959
compound=CCC(=O)O experimental_result=1.3811
